subject-of-test: T1, Pex13, P80667
T1 sequence (P80667 295-386, looked up): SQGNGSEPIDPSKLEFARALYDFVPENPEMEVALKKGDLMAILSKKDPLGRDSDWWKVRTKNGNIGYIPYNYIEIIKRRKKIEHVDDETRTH
run-description: SPOT array
study-conditions: median of control spots 1341
# class assignment by measured SPOT intensity: label 0 (below 6), label 1 (6 to below 60), label 2 (60 or more)

> print(dat)
            binder  class.label
1  EQEEIAPSLPSRNSI      label 2
2  TSFKGRPKPPKTLKH      label 0
3  PVLPPPRSPNRPTLS      label 2
4  ERPKRRAPPPVPKKP      label 2
5  RLPAPPPPPRRGPAP      label 2

Kindly review the next binder as well.
Q: Consider RFKRHRLEFPFNESE . To which SPOT intensity class does it belong?
Result: label 1
